Cited source: patent US20230078764A1

biological target: human SCD5 (Homo sapiens, UniProt Q86SK9); construct: expressed in transfected cells; host or cells: yeast strain with OLE1 deleted, plasmid-borne human SCD5 (selected in SD-Ura); test: Growth inhibition of yeast strain expressing human SCD5 as sole desaturase (OLE1 deleted), OD600 readout; assay type: cell-based; conditions: yeast strain expressing human SCD5 as sole desaturase; growth (OD600) after 40 h at 30° C.; read-out: SCD5 IC50
endpoint.label: IC50 (nM)

CN1N=C(C(=O)Nc2ncc(Cc3cccc(C(F)(F)F)c3)s2)CCC1=O :: 120

a = CN1N=C(C(=O)Nc2ncc(Cc3cc(F)cc(F)c3)s2)CCC1=O
b = O=C(Nc1ccc(Cc2cccc(F)c2)cn1)c1csc(Br)n1
Req: Rank a against b by their IC50 values and give the higher one. Selection: enter the item's label.
Resp: a
(a: 110 nM, b: 70 nM)

----------
Target: human SCD5 (Homo sapiens, UniProt Q86SK9)
Construct: expressed in transfected cells; host or cells: yeast strain with OLE1 deleted, plasmid-borne human SCD5 (selected in SD-Ura)
Sequence (Q86SK9 1-330): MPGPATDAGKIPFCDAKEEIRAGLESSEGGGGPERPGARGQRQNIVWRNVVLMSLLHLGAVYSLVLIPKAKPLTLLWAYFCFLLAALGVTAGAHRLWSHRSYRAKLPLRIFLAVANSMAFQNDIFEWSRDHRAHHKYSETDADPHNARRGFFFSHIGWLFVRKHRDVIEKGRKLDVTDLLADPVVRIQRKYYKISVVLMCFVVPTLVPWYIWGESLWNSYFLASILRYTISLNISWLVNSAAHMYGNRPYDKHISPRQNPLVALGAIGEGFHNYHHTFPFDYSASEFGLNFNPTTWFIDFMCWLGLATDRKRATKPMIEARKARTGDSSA
Experiment: Growth inhibition of yeast strain expressing human SCD5 as sole desaturase (OLE1 deleted), OD600 readout
Format: cell-based
Conditions: yeast strain expressing human SCD5 as sole desaturase; growth (OD600) after 40 h at 30° C.; read-out: SCD5 IC50
pIC50: −log10 of the molar value.
endpoint.label: pIC50

Sample answers from the record:
Cn1cc(C(=O)Nc2ccc(Cc3cccc(Cl)c3)nn2)ccc1=O [Compound 183] :: 5.85
Cc1cnc(C(=O)Nc2ccc(Cc3ccc(F)c(Cl)c3)cn2)cn1 [Compound 138] :: 7.10

a = Cn1nc(C(=O)Nc2ccc(Cc3cc(F)c(F)c(C#N)c3)cn2)ccc1=O [Compound 558]
b = N#Cc1ccc(C(=O)Nc2ccc(Cc3cc(F)cc(C#N)c3)cn2)nc1 [Compound 536]
c = Cn1nc(C(=O)Nc2ccc(COc3ccccc3)cn2)ccc1=O [Compound 584]
Req: Order the entries by their reported pIC50, beginning at the minimum. The response must list the labels following the requested ordering.
Resp: c, b, a

----------
target: human SCD1 (Homo sapiens); construct: expressed in transfected cells; host or cells: yeast strain with OLE1 deleted, plasmid-borne human SCD1 (selected in SD-Ura); assay: Growth inhibition of yeast strain expressing human SCD1 as sole desaturase (OLE1 deleted), OD600 readout; assay type: cell-based; settings: yeast strain expressing human SCD1 as sole desaturase; growth (OD600) after 40 h at 30° C.; read-out: SCD1 IC50
Sequence (O00767 whole entry): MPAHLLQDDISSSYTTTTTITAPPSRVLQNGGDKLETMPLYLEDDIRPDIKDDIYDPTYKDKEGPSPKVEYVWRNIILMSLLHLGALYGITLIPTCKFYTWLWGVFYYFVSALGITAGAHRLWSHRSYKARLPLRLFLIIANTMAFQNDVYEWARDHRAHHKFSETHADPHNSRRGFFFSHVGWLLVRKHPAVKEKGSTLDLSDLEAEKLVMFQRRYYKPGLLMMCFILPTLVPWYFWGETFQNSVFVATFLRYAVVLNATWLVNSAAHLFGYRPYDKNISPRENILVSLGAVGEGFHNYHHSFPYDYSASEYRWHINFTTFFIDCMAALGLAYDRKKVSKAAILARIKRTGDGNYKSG
pIC50: −log10 of the molar value.
Below, each entry is listed alongside its reported pIC50.

Cc1nnc(C(=O)Nc2ccc(Cc3cccc(Cl)c3)cn2)o1 :: 7.40
O=C(Nc1ccc(Cc2cc(F)cc(F)c2)cn1)c1ncc(CO)cn1 :: 8.00
C=C(c1ccc(C(=O)Nc2ccc(Cc3cccc(Cl)c3)cn2)cn1)C(F)(F)F :: 5.00
CN1N=C(C(=O)Nc2ccnc(Cc3cccc(Cl)c3)c2)CCC1=O :: < 4.35
CCn1cc(C(=O)Nc2ccc(Cc3ccc(F)cc3)nn2)ccc1=O :: < 4.35
CN1N=C(C(=O)Nc2ncc(Cc3ccccc3C#N)s2)CCC1=O :: < 4.35
Cn1cc(C(=O)Nc2ccc(N3CC(Oc4cccc(Cl)c4)C3)cn2)ccc1=O :: < 4.35
Cn1nc(C(=O)Nc2ccc(COc3ccccc3)cn2)ccc1=O :: < 4.35
Cn1nc(NC(=O)N[C@H]2CC[C@H](Cc3cccc(Cl)c3)CC2)ccc1=O :: < 4.35

We next turn to a different molecule, shown below.
Req: # get_value(readout= pIC50, system= human SCD1 (Homo sapiens)) for "Cn1nc(C(=O)Nc2ccc(Cc3ccc(F)c(F)c3)cn2)cc1O"
Resp: < 4.35
